B1: Pistol ribozyme (parent)
chain: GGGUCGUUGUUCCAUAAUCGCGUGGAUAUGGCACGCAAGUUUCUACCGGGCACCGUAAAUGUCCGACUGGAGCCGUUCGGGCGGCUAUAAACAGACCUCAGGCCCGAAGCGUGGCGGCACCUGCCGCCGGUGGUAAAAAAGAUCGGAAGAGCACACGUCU

Variants of: B1
procedure text: aptazyme ON/OFF ratio, guanine; higher = stronger switching; co-transcriptional cleavage with and without guanine
Entries and their aptazyme ON/OFF ratio
outcome measure: aptazyme ON/OFF ratio

>>> numeric_value("G9C U10C C12U C13A")
1.07
>>> numeric_value("U8G U10C U11A C12A C13A")
1.16
>>> numeric_value("U7G U8C G9C U11C C13A")
1.46
>>> numeric_value("G9C U10A C13G")
1.08
>>> numeric_value("G9U U10A C12A C13U")
1.09
>>> numeric_value("U7G G9A U10C U11G C12G")
1.15
>>> numeric_value("U7C U8A G9C U10C U11C C12A C13G")
1
>>> numeric_value("U7A U8C G9U U10G C12U C13G")
1.72
>>> numeric_value("U7G U8C G9C U10A U11C C12A")
1.33
>>> numeric_value("U7C G9C U10G C13A")
1.11
>>> numeric_value("U7A U8A G9A U10A U11A C12G")
1.27
>>> numeric_value("U7A U8A G9A U10C C12G C13G")
1.03
>>> numeric_value("U7C U8G G9U U10A U11A C12U")
1.33
>>> numeric_value("U7A U8C G9C U10C U11G C12U C13U")
1.09
>>> numeric_value("G9C U10C U11C C12A")
1.04
>>> numeric_value("U7G G9C C12G C13A")
1.3
>>> numeric_value("U7A U8A C12U C13A")
1.29
>>> numeric_value("U7C U8G G9A U11A C12A C13U")
1.24
>>> numeric_value("U7C U8C U11G C13U")
1.3
>>> numeric_value("U8G U10C C12A C13U")
1.14
>>> numeric_value("U7G U8A U10A U11G C12G")
1.33
>>> numeric_value("U7G U8C G9U U10A U11G C12A")
1.12
>>> numeric_value("G9U U10C U11A C12G C13G")
1.43
>>> numeric_value("U7A U8A G9C U10A U11C")
1.04
>>> numeric_value("U7A U8A G9C U10G C12G C13A")
1.22
>>> numeric_value("G9U U11A C12U C13G")
1.5
>>> numeric_value("U7G U8C G9U U10A U11C C13G")
1.05
>>> numeric_value("U7A U8A G9U U10G C13U")
1.36
>>> numeric_value("U8C G9C U10G U11A C12U C13U")
1.04
>>> numeric_value("G9C U10C U11C C12U C13U")
1.03
>>> numeric_value("U7C U8A G9U U10C C12A C13U")
1.15
>>> numeric_value("U8A G9C C13G")
1.04
>>> numeric_value("U7C G9A U10C U11C")
1.12
>>> numeric_value("U7A U8C G9U U11G C12A C13U")
1.17
>>> numeric_value("U7G G9C U10A C12A")
1.43
>>> numeric_value("U7G U8C U10C U11G C12G")
1.15
>>> numeric_value("U8A G9A U10A U11G C12U C13A")
1.3
>>> numeric_value("U7G U8C G9C U10C U11A C12G C13G")
1.17
>>> numeric_value("U7A U8G U10A C13G")
1.26
>>> numeric_value("U7C U8A U10G U11A C12U C13A")
1.3
>>> numeric_value("U7C U8G G9A U10C U11C C12U C13U")
1.02
>>> numeric_value("U7A U8A U10C U11A C12U C13U")
1.11
>>> numeric_value("U7A U8C G9U U10G U11G C12A C13A")
1.12
>>> numeric_value("U7A U8A G9U U10G C12U")
1.33
>>> numeric_value("U7C U8A G9C U10G U11C C12U")
1.24
>>> numeric_value("U7G U8C U10C U11G C12G C13U")
1.07
